Experimental target: Glycogen synthase kinase-3 beta (Homo sapiens)
Assay context: Compound concentration 20.0 uM, Protein concentration 2.0 uM, Result type QC Liability
Description: Thermal Shift Assay. Domain: start/stop: M26-R383
ΔTm of -0.5 °C or higher: True. Under -0.5 °C: False.

Does ΔTm meet or surpass -0.5 °C for CN[C@@H]1CC[C@@H](c2ccc(Cl)c(Cl)c2)c2ccccc21 ?
False

For C[C@]12CC[C@@H]3c4ccc(O)cc4CC[C@H]3[C@@H]1C[C@H]1OC(=O)C[C@]12O then?
True

For CNC(=O)c1nnc(NC(=O)C2CC2)cc1Nc1cccc(-c2ncn(C)n2)c1OC then?
True

For CN(C)CCCNc1ccnc(Nc2cccc(Cl)c2)n1 then?
True

====

Experimental target: Cyclin-dependent kinase 2 (Homo sapiens) (UniProt P24941)
Assay context: Compound concentration 20.0 uM, Protein concentration 2.0 uM, Result type QC Liability
Description: Thermal Shift Assay. Domain: start/stop: M1-L298
Numbered stars: 1 amine (or outer) side, 2 acyl side, 3 side chain; on linkers, the order of the positions; unused ones are H or OH. Bridge positions count the residues as written; N and C are the ends. Square brackets hold non-standard residues; d marks the D form. Peptide text beside a SMILES is read from it. I, II: the chains in the order shown. Hexamethylenediamine = C(CCCN[*:2])CCN[*:1]; Dip = N[C@H](C(=O)O)C(c1ccccc1)c1ccccc1; Chg = N[C@H](C(=O)O)C1CCCCC1; NMeA = CN[C@@H](C)C(=O)O
Measurement name: ΔTm (°C)
Numeric answer only, unit °C assumed.

Sample Fc1cccc(-n2cnc3c(NCc4nc5c(F)c(F)ccc5[nH]4)nc(N4CCOCC4)nc32)c1 — what was its ΔTm?
0.74

For COc1cc(C(=O)NC2CCN(C)CC2)ccc1Nc1ncc(C(F)(F)F)c(NCc2ccc(C)cc2N(C)S(C)(=O)=O)n1 then?
0.29

For COc1cc(Nc2cnc(C#N)c(O[C@H](C)CN(C)C)n2)ncc1-c1cnn(C)c1 then?
0.23

For Cc1cc(C2CCCNC2)ccc1Nc1ncc(Br)c(NCc2cccc3c2C(C)(C)C(=O)N3)n1 (stereo not drawn) then?
2.03

For CC(=O)O[C@H]1C(=O)[C@@]2(C)[C@H]([C@H](OC(=O)c3ccccc3)[C@]3(O)C[C@H](OC(=O)[C@H](O)[C@@H](NC(=O)c4ccccc4)c4ccccc4)C(C)=C1C3(C)C)[C@]1(OC(C)=O)CO[C@@H]1C[C@@H]2O then?
0.99

For N[C@@H](CC(=O)O)Cn1nnc(-c2ccc(Oc3ncc(Cl)cc3F)cc2)n1 then?
0.66

For Cn1cnc(Cn2ccc3ccc(CNCc4[nH]c5ccccc5c4[C@H]4NC(=O)c5ccc(O)cc54)cc32)c1 then?
-0.58

For CCOC(=O)C1Cc2ccccc2CN1C(=O)c1ccc(SC)s1 (stereo not drawn) then?
0.34

For CN[C@@H]1CC[C@@H](c2ccc(Cl)c(Cl)c2)c2ccccc21 then?
0.01

For C[C@@H]1C[C@H](C)CN(c2ncc(Cl)c(Nc3ccc4c(c3)cc(OC(C)(C)C(=O)O)c(=O)n4C)n2)C1 then?
0.18

For C[C@H]1CN(C2COC2)CCN1c1ccc(Nc2cc(-c3ccnc(N4CCn5c(cc6c5CC(C)(C)C6)C4=O)c3CO)cn(C)c2=O)nc1 then?
-0.09

For CC(C)(O)CNC(=O)N1C(=O)N(c2cccc(C(F)(F)F)c2)C2=C(C(=O)CC2)[C@H]1c1ccc(C#N)cc1 then?
0.79

For CCS(=O)(=O)c1ccc(OC)c(Nc2ncc(-c3cccc(F)c3)o2)c1 then?
0.14

For CC(C)C(=O)N[C@@H]1CCN(C(=O)Nc2nc3c(s2)-c2nc(-c4ccccc4Cl)ncc2CC3)C1 then?
0.75

For COc1cc2nc(C)nc(NC3(c4ccccc4)CC3)c2cc1OC then?
0.41

For C=CC(=O)Nc1cccc(C)c1Nc1ncc2cc(-c3c(Cl)c(OC)cc(OC)c3Cl)ccc2n1 then?
0.87

For O=C(O)c1ccc(CN2C[C@@H]3C[C@H]2CN3Cc2ccc(Oc3ccc(-c4ncco4)cc3)cc2)cc1 then?
0.83

For O=C(Nc1ccc(Cl)c(-c2ccccn2)c1)c1cccc(COc2ccc(Br)cc2CNCCO)c1 then?
-0.21

For CN1CCN(C(=O)c2ccc3cc2OCCOCCNc2ccn4ncc-3c4n2)CC1 then?
0.81

For Fc1ccc(Cl)cc1-c1nc(Nc2ccncc2)c2nccnc2n1 then?
1.19

For CC1CCN(C(=O)[C@@H](CCn2cccc2C#N)NS(=O)(=O)c2cccc3[nH]ccc23)CC1 then?
0.59

For COCCNC1CCC(Nc2cc(-c3csc(NCC4(C#N)CCOCC4)n3)c(Cl)cn2)CC1 (stereo not drawn) then?
1.7

For CCN(CC)C(=O)C1CN2CCc3cc(OC)c(OC)cc3C2CC1OC(C)=O (stereo not drawn) then?
0.69

For COc1cc(-c2cc3ncccc3c(O[C@@H](C)[C@H]3CNC(=O)C3)n2)cc(OC)c1OC then?
0.19

For CNc1nc(Nc2ccc(C(=O)N3CCOCC3)cc2OC)ncc1Cl then?
0.09

For CN[C@@H](C)C(=O)N[C@H](C(=O)N1CCC[C@H]1C(=O)Nc1sc(-c2ncco2)nc1-c1ccccc1)C1CCCCC1 then?
-0.21

For CC#CC(=O)N1CCN(c2nc(-c3ccc(Oc4ccccc4)cc3)c(C(N)=O)s2)CC1 then?
-1.44

For CCN(CC)C/C=C/C(=O)Nc1cc2c(Nc3ccc(F)c(Cl)c3)ncnc2cc1OCC1CC1 then?
-0.55

For CN[C@@H](C)C(=O)N[C@H](C(=O)N1CCC[C@H]1C(=O)N[C@H](C(=O)NCCCCCCNC(=O)[C@@H](NC(=O)[C@@H]1CCCN1C(=O)[C@@H](NC(=O)[C@H](C)NC)C1CCCCC1)C(c1ccccc1)c1ccccc1)C(c1ccccc1)c1ccccc1)C1CCCCC1 (I: H-[NMeA][Chg]P[Dip] / II: H-[NMeA][Chg]P[Dip]; linker I:C-II:C via Hexamethylenediamine) then?
-1.8

For CCCCCCCC/C=C\CCCCCCCC(=O)NCCO then?
-0.92

For CCCCC(C)(O)C/C=C/[C@H]1[C@H](O)CC(=O)[C@@H]1CCCCCCC(=O)O (stereo partly drawn) then?
0.57

For COc1cc2ncnc(Nc3ccc(F)c(Cl)c3)c2cc1OCCN(C)C[C@H](C)O then?
0.34

For Cc1cc(-c2nc(-c3ccc(OC(F)(F)F)cc3)no2)nn1Cc1ccnc(N2CCN(C3CC3)CC2)c1 then?
0.39

====

Answer each item with its documented ΔTm.
Experimental target: Tyrosine-protein kinase ABL1 (Homo sapiens)
Assay context: Compound concentration 20.0 uM, Protein concentration 2.0 uM, Result type QC Liability
Description: Thermal Shift Assay. Domain: start/stop: S229-K512
Numeric answer only, unit °C assumed.

Sample Cc1nn(-c2nc3ccc(Cl)c(Cl)c3[nH]2)c(O)c1C1OC(=O)c2ccccc21 (stereo not drawn) — what was its ΔTm?
-0.04

For COc1cc(O)c(C(CC(=O)N2C[C@H](C)C[C@H](C)C2)c2ccc3c(c2)OCO3)c(OC)c1 (stereo partly drawn) then?
4.29

For COc1cc(N(C)c2ccnc3ccc(C(F)(F)F)cc23)cc(OC)c1OC then?
0.48

For CN(C)C(=O)Cn1cc(-c2nc(C3(c4ccc(-c5cnc(N)nc5)cc4)CC3)no2)cn1 then?
0.7

For CCOCCn1cc(C(=O)Nc2ccc(-n3nc(-c4cccnc4)cc3C(F)(F)F)cn2)ccc1=O then?
0.3

For CN(C)[C@H]1CC[C@H](Nc2ncc3ncnc(Nc4ccc(F)c(Cl)c4)c3n2)CC1 then?
3.21

For C=CC1C[C@]1(NC(=O)[C@@H]1C[C@@H](Oc2cc(-c3csc(NC(=O)C(C)C)n3)nc3c(Br)c(OC)ccc23)CN1C(=O)[C@@H](NC(=O)OC1CCCC1)C(C)(C)C)C(=O)O (stereo partly drawn) then?
0.33

For CCOC(=O)c1cc2cc(-c3cc(C(=O)NCc4ccc(C(=O)O)cc4)nn3C)ccc2[nH]1 then?
0.13

====

Experimental target: Tyrosine-protein kinase ABL1 (Homo sapiens) (UniProt P00519)
Sequence (P00519 whole entry): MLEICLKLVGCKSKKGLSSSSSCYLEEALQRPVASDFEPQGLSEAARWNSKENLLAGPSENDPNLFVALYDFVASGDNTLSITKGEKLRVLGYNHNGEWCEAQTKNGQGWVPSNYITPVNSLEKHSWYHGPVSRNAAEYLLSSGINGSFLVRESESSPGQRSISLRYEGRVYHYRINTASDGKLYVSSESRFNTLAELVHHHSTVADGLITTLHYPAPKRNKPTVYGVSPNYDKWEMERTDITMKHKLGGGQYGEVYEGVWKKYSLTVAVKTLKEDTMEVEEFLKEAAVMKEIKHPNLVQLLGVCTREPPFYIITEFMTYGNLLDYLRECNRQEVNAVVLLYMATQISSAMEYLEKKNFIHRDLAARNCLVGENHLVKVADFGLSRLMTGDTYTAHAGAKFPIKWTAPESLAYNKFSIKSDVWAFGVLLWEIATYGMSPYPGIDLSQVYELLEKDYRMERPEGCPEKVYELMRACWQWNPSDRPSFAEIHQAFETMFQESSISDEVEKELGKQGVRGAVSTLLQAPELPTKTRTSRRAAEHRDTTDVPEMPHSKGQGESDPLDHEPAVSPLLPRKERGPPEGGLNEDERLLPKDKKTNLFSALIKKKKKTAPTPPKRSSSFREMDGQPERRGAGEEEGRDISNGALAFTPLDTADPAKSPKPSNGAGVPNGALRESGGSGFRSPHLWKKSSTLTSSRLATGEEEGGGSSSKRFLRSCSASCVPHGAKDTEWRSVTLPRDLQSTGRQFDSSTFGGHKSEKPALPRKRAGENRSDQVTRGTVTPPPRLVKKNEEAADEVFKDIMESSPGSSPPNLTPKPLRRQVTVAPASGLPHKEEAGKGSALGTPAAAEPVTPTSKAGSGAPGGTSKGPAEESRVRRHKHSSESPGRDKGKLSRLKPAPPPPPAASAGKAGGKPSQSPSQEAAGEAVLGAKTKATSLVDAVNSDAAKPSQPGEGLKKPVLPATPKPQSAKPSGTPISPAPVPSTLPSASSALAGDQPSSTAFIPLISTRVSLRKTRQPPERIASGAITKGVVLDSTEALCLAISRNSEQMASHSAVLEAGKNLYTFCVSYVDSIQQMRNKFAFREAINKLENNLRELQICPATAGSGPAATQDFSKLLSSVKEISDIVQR
Assay context: Compound concentration 20.0 uM, Protein concentration 2.0 uM, Result type QC Liability
Response field label takes true (1) when ΔTm is strictly below 0.4 °C and false (0) in all other cases.

I'd appreciate it if you could check whether CC(C)(O)[C@H](F)CN1Cc2cc(NC(=O)c3cnn4cccnc34)c(N3CCOCC3)cc2C1=O has ΔTm smaller than 0.4 °C.
false (0)

For O=C(NCc1ccc(F)cc1)C1CCN(S(=O)(=O)c2cc(Cl)cc(Cl)c2)CC1 then?
true (1)

For CN(C(=O)c1ccccc1)c1ccc2c(c1)[nH]/c(=N\C(=O)c1ccc(Br)s1)n2CCC(N)=O then?
false (0)

For Cc1cc(NC(=O)c2cccc(NC(=O)/C=C/CN(C)C)c2)ccc1Nc1nccc(-c2cccnc2)n1 then?
false (0)

For CCN1C(=O)N(c2c(F)c(OC)cc(OC)c2F)Cc2cnc3[nH]c(CN4CCOCC4)cc3c21 then?
true (1)

For NS(=O)(=O)c1ccc(Nc2nc(OCC3CCCCC3)c3nc[nH]c3n2)cc1 then?
false (0)

For CC(C)(C#Cc1ccc(NC(=O)COc2ccccc2C(=O)c2ccccc2)c(Cl)c1)C(=O)O then?
true (1)

For CN(C)C(=O)Cn1cc(-c2ccc(-c3nnc4ccccn34)cc2)cn1 then?
true (1)

For COc1c(NC(=O)c2cc3cccc(Oc4ccnc(C(=O)N5CCN(C)CC5)c4)c3n2C)cc(C(C)(C)C)cc1NS(C)(=O)=O then?
true (1)

For C=CC(=O)Nc1cccc(C)c1Nc1ncc2cc(-c3c(Cl)c(OC)cc(OC)c3Cl)ccc2n1 then?
false (0)

For COc1cccc(CNc2ccc(S(=O)(=O)Nc3nc4ccccc4s3)cc2)c1O then?
true (1)

For CC(C(=O)Nc1cc(C#N)ccc1CCCC(=O)O)c1ccc(F)c2ccccc12 (stereo not drawn) then?
false (0)

For N#C/C(=C\c1ccc(O)c(O)c1)C(=O)OCCc1cccs1 then?
false (0)

For Cc1ncsc1-c1ccc(CNC(=O)[C@@H]2C[C@@H](O)CN2C(=O)[C@@H](NC(=O)CCCCNC(=O)c2ccc(-c3ccc(N4CCN(C)CC4)c(NC(=O)c4c[nH]c(=O)cc4C(F)(F)F)c3)cc2)C(C)(C)C)cc1 then?
true (1)

For COc1cc(C(=O)O)ncc1C#Cc1ccccc1NS(=O)(=O)c1cccc2c(N(C)C)ccnc12 then?
true (1)

For COc1ccccc1-c1cc(Nc2cccc(CS(N)(=O)=O)c2)ncn1 then?
false (0)

For Cc1n[nH]c2ncc(C(=O)N3CCC[C@H]3c3ccc(Cl)cc3)cc12 then?
false (0)
